# System: HS 578T breast
# procedure_details: NCI tumour cell line growth inhibition, 48 h
observation_type: TGI

In: Which TGI is reported for this compound? `COc1ccc2c(c1)C(=O)c1c-2c(OCCN(C)C)nc2ccccc12`
Out: 12.2 µM

In: // repeat for `N#Cc1nc(C#N)n(S(=O)(=O)c2ccccc2)c1NS(=O)(=O)c1ccccc1` and report
Out: > 100 µM

In: // repeat for `C[CH2][Hg][S]c1ccccc1C(=O)O` and report
Out: > 100 µM

In: // repeat for Cn1c(=O)n2n(c1=O)C(C)(C13CC4CC(CC(C4)C1)C3)C13CC4CC(CC1C4)CC23 (centres undefined) and report
Out: > 100 µM

###

Task for the reader: assign each of the following compounds its reported GI50.
# Test system: SN12C renal
# procedure_details: NCI tumour cell line growth inhibition, 48 h

In: Which GI50 is reported for this compound? `COc1ccc2c(-c3ccnc(Nc4cccc(OC(F)(F)F)c4)n3)cnn2n1`
Out: 1750 nM

In: // repeat for `CN1CCc2nc3sc(C(N)=O)c(N)c3c(-c3cccs3)c2C1` and report
Out: 2690 nM

In: // repeat for N/C(=N\OC(=O)c1ccccc1)C(Cc1ccccc1)C(=O)NOC(=O)c1ccccc1 (stereo not given) and report
Out: 3390 nM

In: // repeat for `COc1ccc(Nc2ccc([N+](=O)[O-])cc2[N+](=O)[O-])cc1CN(CCCl)CCCl` and report
Out: 2600 nM

In: // repeat for `O=c1c2cc(F)ccc2sc2c(NCCCNCCO)nc3ccccc3c12` and report
Out: 1670 nM

###

# Tested on: EKVX NSCLC
# procedure_details: NCI tumour cell line growth inhibition, 48 h
observation_type: TGI

In: Which TGI is reported for this compound? `COc1ccc2c(-c3ccnc(Nc4cccc(OC(F)(F)F)c4)n3)cnn2n1`
Out: > 25 µM

In: // repeat for C=CCOc1ccc(C2C(C(=O)OC)C(=O)CC(O)(c3ccccc3)C2C(=O)OC)cc1OC (stereo not drawn) and report
Out: > 100 µM

In: // repeat for `CC(=O)O[C@@H]1C[C@@]2(C)[C@@H]3CC=C4[C@@H](C[C@H](O)C(=O)C4(C)C)[C@]3(C)C(=O)C[C@]2(C)[C@H]1[C@@](C)(O)C(=O)/C=C/C(C)(C)OC(C)=O` and report
Out: 26 µM

In: // repeat for `c1ccc2c(c1)CCc1c-2n[nH]c1-c1[nH]nc2c1CCc1ccccc1-2` and report
Out: > 100 µM

In: // repeat for `O=C1N[C@@H]2C(=C[C@H](O)[C@@H](O)[C@H]2O)c2cc3c(c(O)c21)OCO3` and report
Out: 0.0743 µM

In: // repeat for COC(=O)C(C(=O)C(=O)Nc1ccc([N+](=O)[O-])cc1)c1nc2ccc([N+](=O)[O-])cc2[nH]c1=O (stereo not drawn) and report
Out: > 100 µM

In: // repeat for CN=C1OC2(c3ccccc3)C3=C(OC(=NC)N2C)C(=O)OC3(c2ccccc2)N1C (stereo not drawn) and report
Out: > 100 µM

In: // repeat for `O=C(Nc1ccccc1OC(=O)c1ccccc1)c1ccccc1` and report
Out: > 100 µM

###

# Test system: SNB-78 CNS
# procedure_details: NCI tumour cell line growth inhibition, 48 h
Task for the reader: assign each of the following molecules its reported TGI.
Write the number in nM without appending the unit.

In: Which TGI is reported for this molecule? `CC(C)(C)c1cc2nc(c1)C(C(F)(F)F)(C(F)(F)F)OB(Br)OC2(C(F)(F)F)C(F)(F)F`
Out: 1560

In: // repeat for `O=C1N[C@@H]2C(=C[C@H](O)[C@@H](O)[C@H]2O)c2cc3c(c(O)c21)OCO3` and report
Out: 399

###

# Tested on: K-562 leukemia
# procedure_details: NCI tumour cell line growth inhibition, 48 h
observation_type: TGI

In: Which TGI is reported for this compound? C[C@@H]1O[C@@H](O[C@@H]2[C@@H](O)[C@H](OCCc3ccc(O)c(O)c3)O[C@H](CO)[C@H]2OC(=O)/C=C/c2ccc(O)c(O)c2)[C@H](O)[C@H](OC2OC[C@](O)(CO)[C@H]2O)[C@H]1O (stereo partly specified)
Out: > 100 µM

In: // repeat for CC1c2ccccc2CCN1c1ccc(CO)c(Cl)c1 (stereo unspecified) and report
Out: > 100 µM

In: // repeat for `O=C(O)CCNS(=O)(=O)c1ccc([N+](=O)[O-])cc1` and report
Out: > 100 µM

In: // repeat for `Nc1nc2c(C(=O)O)c3ccc([N+](=O)[O-])cc3c(=O)n2c2ccccc12` and report
Out: > 100 µM

In: // repeat for `O=c1[nH]nc(-c2ccccc2)n1O` and report
Out: > 100 µM

In: // repeat for `C=CCc1cc(Nc2c3ccc(Cl)cc3nc3ccc(OC)cc23)cc(CN(CC)CC)c1O` and report
Out: 4.11 µM

In: // repeat for `CC(=O)O[C@@H]1C[C@@]2(C)[C@@H]3CC=C4[C@@H](C[C@H](O)C(=O)C4(C)C)[C@]3(C)C(=O)C[C@]2(C)[C@H]1[C@@](C)(O)C(=O)/C=C/C(C)(C)OC(C)=O` and report
Out: > 100 µM

In: // repeat for O=C1c2ccccc2N2OC3(N4CCCC4)CCCCC3C12c1ccccc1 (stereo unspecified) and report
Out: 59.8 µM

In: // repeat for `Oc1cc(-n2cccn2)c(O)cc1-n1cccn1` and report
Out: 39.3 µM

In: // repeat for `CC(C)(C)c1cc2nc(c1)C(C(F)(F)F)(C(F)(F)F)OB(Br)OC2(C(F)(F)F)C(F)(F)F` and report
Out: 10 µM

In: // repeat for `C/C(=N\O)c1cccc(Nc2cc(-n3ccnc3)c3ccccc3n2)c1` and report
Out: 73.1 µM

In: // repeat for `C=C(C)[C@@H]1CC[C@]2(C(=O)OC)CC[C@]3(C)[C@H](CC[C@@H]4[C@@]5(C)CC[C@H](O)C(C)(C)[C@@H]5CC[C@]43C)[C@@H]12` and report
Out: 47 µM

In: // repeat for `c1cc(N2CCN(c3ccc(C4=NCCCN4)cc3)CC2)ccc1C1=NCCCN1` and report
Out: > 100 µM

In: // repeat for `O=C(CN1N=C(c2ccc(F)cc2)CCC1=O)Nc1nc2ccccc2s1` and report
Out: > 100 µM

In: // repeat for `COc1cc(Nc2nc3cc(C(F)(F)F)ccc3n3cccc23)cc(OC)c1OC` and report
Out: > 100 µM

In: // repeat for `O=C(O)c1ccccc1NC(=S)c1ccccc1` and report
Out: > 100 µM

In: // repeat for C=CCOc1ccc(C2C(C(=O)OC)C(=O)CC(O)(c3ccccc3)C2C(=O)OC)cc1OC (stereo unspecified) and report
Out: > 100 µM

In: // repeat for `Clc1ccc2oc(CCc3ccccc3)nc2c1` and report
Out: > 100 µM

In: // repeat for COc1ccc(C2=NOC(N)(c3ccc(OC)cc3)C2)cc1 (stereo unspecified) and report
Out: > 100 µM

In: // repeat for `Cc1cc2c(cc1C)[n+](=O)c(C(=O)c1ccccc1)c(C(F)(F)F)n2[O-]` and report
Out: 9.14 µM

In: // repeat for `O=C(c1ccco1)N(C(=O)N1CCN(c2ccccc2)CC1)S(=O)(=O)c1ccccc1` and report
Out: > 100 µM

In: // repeat for `O=C1N[C@@H]2C(=C[C@H](O)[C@@H](O)[C@H]2O)c2cc3c(c(O)c21)OCO3` and report
Out: 0.0955 µM

In: // repeat for `Cc1cnc2c(c1C)C(=O)c1ccccc1C2=O` and report
Out: > 100 µM

In: // repeat for CC(C)(C)NC(=O)CCC1C(C(=O)NC(C)(C)C)C2(Cl)C(Cl)=C(Cl)C1(Cl)C2(Cl)Cl (stereo unspecified) and report
Out: > 100 µM

In: // repeat for Cn1c(=O)n2n(c1=O)C(C)(C13CC4CC(CC(C4)C1)C3)C13CC4CC(CC1C4)CC23 (stereo unspecified) and report
Out: > 100 µM

In: // repeat for `N#C/C(C(=S)NCc1ccccc1)=C(/N)N1CCCC1` and report
Out: > 100 µM

In: // repeat for N#CCCC1(CCC#N)CCCCCCCCC(CCC#N)(CCC#N)C(O)C1O (stereo unspecified) and report
Out: > 100 µM

In: // repeat for C[C@@H]1Cc2cc(O)ccc2[C@H]2CC[C@]3(C)/C(=C/COCCN(C)C)CC[C@H]3[C@H]12 (tested in a mixture with another compound) and report
Out: 0.985 µM

In: // repeat for `CCOC(=O)Cn1nnc2ccc(Nc3nc4ccccc4nc3-c3ccccc3)cc21` and report
Out: > 100 µM

In: // repeat for `COc1cc2c3c([nH]c2c(OC)c1OC)CCN(Cc1ccccc1)C3` and report
Out: 84.2 µM

In: // repeat for CCC1C(c2ccccc2O)c2cc3c(cc2OC1N1CCOCC1)OCO3 (stereo unspecified) and report
Out: 31.5 µM

In: // repeat for `Fc1cccc(F)c1C(Nc1nncs1)Nc1nncs1` and report
Out: > 100 µM

In: // repeat for `Nc1nc(N)c(CCCCc2ccccc2)c(N)n1` and report
Out: > 100 µM

In: // repeat for `N#CNc1nc(N)c(-c2ccc(Cl)cc2)c(C(=O)Nc2nccs2)n1` and report
Out: > 100 µM

In: // repeat for `NNc1nnc(-c2nnc(NN)o2)o1` and report
Out: > 10 µM

In: // repeat for `O=C1C=C(O)C(=Cc2c(O)cc(O)cc2O)C(O)=C1` and report
Out: > 100 µM

In: // repeat for `Oc1cccc2c1NCCC2` and report
Out: > 73.9 µM

In: // repeat for CC[C@@]1(O)C(=O)OCc2c1cc1n(c2=O)Cc2c-1nc1ccccc1c2/C=N\NC(=O)C(N)CCSC (stereo partly specified) and report
Out: > 100 µM

In: // repeat for `COc1ccc(/C=C(/C)[N+](=O)[O-])cc1OC` and report
Out: > 100 µM

In: // repeat for `CSc1c(C#N)c(N)n(-c2ccc(Cl)cc2)c(=O)c1C#N` and report
Out: > 100 µM

In: // repeat for CC(CO)(Nc1ccc([N+](=O)[O-])cc1[N+](=O)[O-])C(=O)O (stereo unspecified) and report
Out: 38.6 µM

Just for reference, PubChem BioAssay (NCI) is where these values come from.
